- Test system: RhpR (Pseudomonas savastanoi pv. phaseolicola 1448A), ORF:976030cf
- Sequence: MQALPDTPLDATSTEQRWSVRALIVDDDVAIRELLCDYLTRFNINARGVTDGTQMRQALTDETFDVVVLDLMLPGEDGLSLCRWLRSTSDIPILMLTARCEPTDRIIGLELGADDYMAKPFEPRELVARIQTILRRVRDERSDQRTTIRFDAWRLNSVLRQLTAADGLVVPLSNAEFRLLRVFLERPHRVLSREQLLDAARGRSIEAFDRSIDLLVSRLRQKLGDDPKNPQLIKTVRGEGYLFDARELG
- Experiment Notes: EMSA
- Condition Context: EMSA: 40 ng probe in 20 ul of 10 mM Tris-HCl pH 7.4, 50 mM KCl, 5 mM MgCl2, 10% glycerol; room temperature 20 min; 6% PAGE, DNA dye

>  <Seq Text>
TTGGATCCAACACCCTATCCACTGAAGGTCTTGGCGGGCAAAAAACAAGCCGAGGATTATACCCGAGCTATGACCCTCGAGAA (double strand) [rpoD promoter]

>  <binding>
binds

$$$$
